The values you see were collected from the supplement of paper PMC7125110.

B1: glmS ribozyme (parent)
chain: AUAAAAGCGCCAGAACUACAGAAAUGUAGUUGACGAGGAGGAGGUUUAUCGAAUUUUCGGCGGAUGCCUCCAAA

Variants of: B1
Assay protocol: self-cleavage kobs at 2500 uM GlcN6P; higher = faster cleavage; RNA array
Test conditions: with glucosamine-6-phosphate
Fewer inactive variants are shown than the library holds.
Entries and their measured self-cleavage kobs at 2500 uM GlcN6P follow.
Measured parameter: self-cleavage kobs at 2500 uM GlcN6P (s⁻¹)

{"Mutations": "A14C A53U C67U", "Result modifier": "=", "Reported result": 0.000626}
{"Mutations": "A12G U56A", "Result modifier": "=", "Reported result": 0.000221}
{"Mutations": "G35A G43U C68U", "Result modifier": "<", "Reported result": "1e-05"}
{"Mutations": "C11G A36C G38U C50A U65G", "Result modifier": "<", "Reported result": "1e-05"}
{"Mutations": "C58G C71G", "Result modifier": "=", "Reported result": "3.56e-05"}
{"Mutations": "G43C C68G", "Result modifier": "=", "Reported result": 0.0139}
{"Mutations": "G44A G60A", "Result modifier": "<", "Reported result": "1e-05"}
{"Mutations": "G7U A12U U45G", "Result modifier": "<", "Reported result": "1e-05"}
{"Mutations": "U46G C70U", "Result modifier": "=", "Reported result": 0.00235}
{"Mutations": "G38U C50A", "Result modifier": "<", "Reported result": "1e-05"}
{"Mutations": "U47G G62U G63U U65G", "Result modifier": "<", "Reported result": "1e-05"}
{"Mutations": "C10U C16U A33U", "Result modifier": "=", "Reported result": "6.87e-05"}
{"Mutations": "A14C U46A", "Result modifier": "=", "Reported result": 0.000194}
{"Mutations": "A15G A48G", "Result modifier": "=", "Reported result": 0.000216}
{"Mutations": "A36C G37A G43U C61G C67A", "Result modifier": "<", "Reported result": "1e-05"}
{"Mutations": "A14G C58G U69A", "Result modifier": "=", "Reported result": "3.74e-05"}
{"Mutations": "A48U A53G", "Result modifier": "=", "Reported result": 0.000229}
{"Mutations": "A12G G66U C67U", "Result modifier": "=", "Reported result": "4.93e-05"}
{"Mutations": "C67U C71G", "Result modifier": "=", "Reported result": 0.00068}
{"Mutations": "A6U A12G C16U G38A U54A C68A", "Result modifier": "=", "Reported result": 0.000395}
{"Mutations": "A14U C68G", "Result modifier": "=", "Reported result": "3.41e-05"}
{"Mutations": "G9U U30C A36C", "Result modifier": "<", "Reported result": "1e-05"}
{"Mutations": "A42G A53C", "Result modifier": "=", "Reported result": 0.0112}
{"Mutations": "A33G U55C G59A", "Result modifier": "<", "Reported result": "1e-05"}
{"Mutations": "A12C C16U A39U", "Result modifier": "=", "Reported result": 0.00306}
{"Mutations": "A36C G37A G51C C61U", "Result modifier": "<", "Reported result": "1e-05"}
{"Mutations": "G41A G66U", "Result modifier": "=", "Reported result": "4.07e-05"}
{"Mutations": "G29C A48G", "Result modifier": "<", "Reported result": "1e-05"}
{"Mutations": "A15C U47C U55C", "Result modifier": "=", "Reported result": 0.000237}
{"Mutations": "G7C U55A", "Result modifier": "<", "Reported result": "1e-05"}
{"Mutations": "C8G C11A G43A", "Result modifier": "<", "Reported result": "1e-05"}
{"Mutations": "A42G U47G C67U", "Result modifier": "=", "Reported result": 0.0013}
{"Mutations": "A15U U69G", "Result modifier": "=", "Reported result": "6.85e-05"}
{"Mutations": "U55C C58A C70U", "Result modifier": "=", "Reported result": "5.54e-05"}
{"Mutations": "A53C C71U", "Result modifier": "=", "Reported result": 0.00474}
{"Mutations": "C34G C58U", "Result modifier": "<", "Reported result": "1e-05"}
{"Mutations": "A12C C16U G41U", "Result modifier": "=", "Reported result": 0.000447}
{"Mutations": "A36C U56A", "Result modifier": "<", "Reported result": "1e-05"}
{"Mutations": "C10A A52C", "Result modifier": "<", "Reported result": "1e-05"}
{"Mutations": "A53U U54C U57C C61G", "Result modifier": "<", "Reported result": "1e-05"}
{"Mutations": "C8G A64U C70U", "Result modifier": "<", "Reported result": "1e-05"}
{"Mutations": "G13A G40C C70G", "Result modifier": "<", "Reported result": "1e-05"}
{"Mutations": "U31C U54A C67G", "Result modifier": "=", "Reported result": "7.96e-05"}
{"Mutations": "G32A U49G C58G G63U U69G", "Result modifier": "=", "Reported result": 0.000153}
{"Mutations": "G32A G59C", "Result modifier": "<", "Reported result": "1e-05"}
{"Mutations": "G9A A33C", "Result modifier": "<", "Reported result": "1e-05"}
